assay: qHTS assay to identify small molecule agonists of the estrogen receptor beta (ER-beta) signaling pathway - cell viability counter screen (AID 1259380); conditions: ER-beta-bla HEK293T viability, CellTiter-Glo luminescence, 16 h; series mostly up to 92.4 µM; further: nearly all actives have a fitted effect of over 30% in size; further: potency means the concentration at half of the fitted maximal effect
Inconclusive results are not listed. The source made the active and inactive calls. The call rests on the fitted dose curve; in most records, active means well fitted cell-killing curve with a large enough effect in the repeat runs; inconclusive means weak or mixed curves, or effect the other way; inactive means flat fitted curve, though single readings scatter.
Readout: Potency

CC(C)(C)C(=O)O
inactive
CCCCOC(=O)CCS
inactive
CC(N)CN (stereo not drawn)
inactive
CCOC(=O)C(C)Oc1ccc(Oc2nc3ccc(Cl)cc3o2)cc1 (stereo not drawn)
inactive
CCCCCCOC(=O)CCCCCCCC(=O)OCCCCCC
inactive

// batch mode: one Potency value per listed entry
1. Cc1cc(S(=O)(=O)O)ccc1N=Nc1c(O)ccc2ccccc12
2. CC[C@@H]([C@H](C)O)n1ncn(-c2ccc(N3CCN(c4ccc(OC[C@@H]5CO[C@@](Cn6cncn6)(c6ccc(F)cc6F)C5)cc4)CC3)cc2)c1=O
3. CC1(C)O[C@@H]2C[C@H]3[C@@H]4CCC5=CC(=O)C=C[C@]5(C)[C@H]4[C@@H](O)C[C@]3(C)[C@]2(C(=O)CO)O1
4. CC(=O)CC(c1ccc([N+](=O)[O-])cc1)c1c(O)c2ccccc2oc1=O (stereo not drawn)
5. C=CC(C)(O)CCCC(C)CCCC(C)CCCC(C)C (stereo not drawn)

inactive
4.22 µM (active)
inactive
inactive
inactive
